Data credit: the supplement of paper PMC9170038

- Tested on: MS2 coat protein
- test_summary: apparent KD of MS2 coat protein; designed switch direction (-1 OFF switch, 1 ON switch): -1; higher = weaker reporter binding
- protocol_conditions: input ligand: none
Label rule, in plain words: apparent KD of MS2 coat protein of 30 nM and up is YES, under 30 nM is NO.

input_sequence	label_value
GAUGGAGAGCAGGAUAUCUUGGGUAAGCAUCAUAGAGAAGGGCUCACAUGAGGAUCACCCAUGUGGUCCAAGAA [Usbiridi] (Eterna round: R96, puzzle: Exclusion 6)	NO

Q: Given the entry GCAGUCAAAGUGAGGAUAUCUAGAGCGAUAGCUCUAGAGAAGGCACAUGAGGAUCACCCAUGUGAUCAGACUGC [BmEx4/7-A4'1] (Eterna round: R97, puzzle: Brourd's mod of Exclusion 4) , answer whether its apparent KD of MS2 coat protein meets or surpasses 30 nM.
Ans: YES

Q: Same lookup for CCAGCGUAUGUUAGGAUAUGCUGGUCCUUGGAUCAGCAGAAGGAACAUGAGGAUCACCCAUGUAGAAUCGUUGG [Mod of JL 15 - Jieux - Brourd's mod of Exclusion 4] (Eterna round: R97, puzzle: Brourd's mod of Exclusion 4) , please.
Ans: NO

Q: Same question, UACUUGUUAGGAUAUCUUACAUUUGCAUCAUAGUAACCUUUGGAGAAGGGACAUGAGGAUCACCCAUGUUUGGU [tap-tap-tappy6] (Eterna round: R97, puzzle: Exclusion 4) this time
Ans: YES

* * *

- Test system: MS2 coat protein
- test_summary: apparent KD of MS2 coat protein; designed switch direction (-1 OFF switch, 1 ON switch): 1; higher = weaker reporter binding
- protocol_conditions: input ligand: none
Where apparent KD of MS2 coat protein equals or exceeds 200 nM, the correct label is fulfilled; where it does not, the label is not fulfilled.

input_sequence	measurement_target	label_value
GCUAGAAUAAACGCCUACAUGAGGAUCACCCAUGUAUGUAGGCAGGAUAUCGUAUGCAAAGCAUACGAGAAGGGCCUUACUAGC [Mat - Same State NG 3 - JL Mod - D33] (Eterna round: R96, puzzle: Same State NG 3)	MS2 coat protein	not fulfilled
GCUCGAUGAUAGGCCUACAUGAGGAUCACCCAUGUAACUGGGCAGGAUAUCUAAAUGCAGAAUGUAGAGAAGGGCCCGUCGAGC [SameState NG3 #53] (Eterna round: R96, puzzle: Same State NG 3)	MS2 coat protein	fulfilled
ACAUGAAAUGCAGGAUAUUUUGUACCUACAUGUGACAUGAGGAUCACCCAUGUGGUAAGUAUAAGAGAGAAGGGUAAGAUAUGU [Equivalence 3 - Jieux - Same State NG 2] (Eterna round: R96, puzzle: Same State NG 2)	MS2 coat protein	not fulfilled
ACGUGGCUGCCGCAGGAUAUACCCUGUUCCACAUGAGGAUCACCCAUGUUUACGAACUAUGAGAGGUAGAAGGGUGGAUGUCAUU [Beenvean] (Eterna round: R96, puzzle: Same State 2)	MS2 coat protein	not fulfilled
UAUUAAUCUGUAGGAUAUCUAGGAUAUGGACGAGGAUCACCCGAGCAGCAUCAGCGCACCAGAGGAGAGAAGGACGCUCUGGUG [pwkr ssNG2 2F5 2FMN.25] (Eterna round: R96, puzzle: Same State NG 2)	MS2 coat protein	fulfilled

Q: Say whether GCUACCAAAGAAGCCAACAUGAGGAUCACCCAUGUAUGUUGGUAGGAUAUCGUUUGCAAAGCAAACGAGAAGGGCUAAGGUAGC [Mat - Same State NG 3 - JL Mod - D77] (Eterna round: R96, puzzle: Same State NG 3) shows apparent KD of MS2 coat protein of 200 nM or more.
Ans: not fulfilled

Q: One more sequence: UUUGAAUUGCAAGGAUAUUGAUAACAUGAGGAUCACCCAUGUAAUUGUUCGAGUUAGAUUAGUUACAAGAAGGUGCUAUUGUUU [JR_SSNG2_Sub039] (Eterna round: R96, puzzle: Same State NG 2)
Ans: fulfilled

Q: Proceed to AUUUUUAAUGCAGGAUAUGAUUAACAUGAGGAUCACCCAUGUGGUGUUGUGAGUAAGGAGAGUGAUCAGAAGGGCAUUUCUUUU [JMF's solution 82] (Eterna round: R96, puzzle: Same State NG 2)
Ans: fulfilled

Q: How about GCUCCAUUACGAGGAUAUGGGAAAGGAAGUGUACCAGAAGGCGUGAAAAGGUACAUGAGGAUCACCCAUGUACCCGGGAGCAAA [PowerStrip SSNG 1.11] (Eterna round: R96, puzzle: Same State NG 1) ?
Ans: not fulfilled
